Target: UniProt:P06276
Sequence (P06276 29-602, species assumed): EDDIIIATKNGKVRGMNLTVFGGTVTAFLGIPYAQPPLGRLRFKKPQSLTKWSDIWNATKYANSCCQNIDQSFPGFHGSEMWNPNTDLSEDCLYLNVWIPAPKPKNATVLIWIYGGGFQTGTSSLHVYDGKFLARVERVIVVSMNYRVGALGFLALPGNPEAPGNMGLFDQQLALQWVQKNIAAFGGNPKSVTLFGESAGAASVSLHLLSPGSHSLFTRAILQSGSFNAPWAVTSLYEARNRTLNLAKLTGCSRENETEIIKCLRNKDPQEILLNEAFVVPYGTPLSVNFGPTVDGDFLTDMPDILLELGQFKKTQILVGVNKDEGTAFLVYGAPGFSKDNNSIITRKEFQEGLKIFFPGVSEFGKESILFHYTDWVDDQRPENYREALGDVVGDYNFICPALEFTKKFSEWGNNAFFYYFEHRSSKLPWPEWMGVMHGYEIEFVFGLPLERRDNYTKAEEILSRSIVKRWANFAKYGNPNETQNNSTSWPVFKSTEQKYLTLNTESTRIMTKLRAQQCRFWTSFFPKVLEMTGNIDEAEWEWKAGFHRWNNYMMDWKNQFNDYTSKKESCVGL
Experiment: butyryl cholinesterase inhibition assay
Type: biochemical
Conditions: read-out: BChE inhibition (%) at 0.5 mM
Label scheme for inhibition at 500 µM: interval 1 = under 40%, interval 2 = from 40% up to 70%, interval 3 = 70% and over

Challenge: // bin(item) where item = CCOc1ccc(NC(=O)CSc2nnc(C3CCCN(S(=O)(=O)c4ccccc4)C3)o2)cc1 (stereo not shown)
Response given: interval 3

Challenge: // bin(item) where item = O=C(CSc1nnc(C2CCCN(S(=O)(=O)c3ccccc3)C2)o1)NC1CCCCC1 (stereo not shown)
Response given: interval 1

Challenge: // bin(item) where item = COc1ccc(Cl)cc1NC(=O)CSc1nnc(C2CCCN(S(=O)(=O)c3ccccc3)C2)o1 (stereo not shown)
Response given: interval 1

Challenge: // bin(item) where item = Cc1ccccc1NC(=O)CSc1nnc(C2CCCN(S(=O)(=O)c3ccccc3)C2)o1 (stereo not shown)
Response given: interval 2

Challenge: // bin(item) where item = O=C(CSc1nnc(C2CCCN(S(=O)(=O)c3ccccc3)C2)o1)NCc1ccccc1 (stereo not shown)
Response given: interval 1

Challenge: // bin(item) where item = Cc1cc(C)cc(NC(=O)CSc2nnc(C3CCCN(S(=O)(=O)c4ccccc4)C3)o2)c1 (stereo not shown)
Response given: interval 2

Challenge: // bin(item) where item = CCc1ccc(NC(=O)CSc2nnc(C3CCCN(S(=O)(=O)c4ccccc4)C3)o2)cc1 (stereo not shown)
Response given: interval 3

Challenge: // bin(item) where item = CCc1cccc(C)c1NC(=O)CSc1nnc(C2CCCN(S(=O)(=O)c3ccccc3)C2)o1 (stereo not shown)
Response given: interval 1

Challenge: // bin(item) where item = Cc1cccc(NC(=O)CSc2nnc(C3CCCN(S(=O)(=O)c4ccccc4)C3)o2)c1C (stereo not shown)
Response given: interval 3
